Listed molecules paired with reported activity, negative = inhibition
- TARGET SYSTEM: Cytochrome P450 3A4 (Homo sapiens)
- EXPERIMENT DESCRIPTION: Cytochrome panel assay with activity outcomes; note: % is set by controls: 0 for no effect and ±100 for the full control effect
- CONDITION DESCRIPTION: recombinant CYP, pro-luciferin dealkylation, luminescence, p450-cyp3a4; series mostly up to 57.1 µM
- Procedure: The P450 gene superfamily is involved in the metabolism and clearance of xenobiotics. This assay used various human CYP P450 isozymes to measure the dealkylation of various pro-luciferin substrates to luciferin. The luciferin is then measured by luminescence after the addition of a luciferase detection reagent. […] Inhibitors and some substrates limit the production of luciferin, and decrease measured luminescence. […] 8, Detection, 1 sec, ViewLux luminescent read […]
Among all 16,000 compounds or so, about 5,100 (32%) were called active. Inconclusive results (about 25%) are left out. This is one part of the list.

{"MOLECULE": "COc1ccc(Cc2nnc(NC(=O)Cn3cnc4c3c(=O)n(C)c(=O)n4C)s2)cc1OC", "activity, negative = inhibition": "4.73% [at 2.29 µM] (inactive)"}
{"MOLECULE": "O=C(O)c1ccc(S(=O)(=O)N=Nc2c(O)[nH]c3ccccc23)cc1", "activity, negative = inhibition": "14.3% [at 11.4 µM] (inactive)"}
{"MOLECULE": "Cc1[nH]c(N)nc(=S)c1CCC(=O)O", "activity, negative = inhibition": "-2.07% [at 11.4 µM] (inactive)"}
{"MOLECULE": "CC1(C)O[C@H]2[C@@H](c3[nH]nc4c(=O)[nH]c(=O)[nH]c34)OC[C@H]2O1", "activity, negative = inhibition": "-0.0029% [at 11.4 µM] (inactive)"}
{"MOLECULE": "O=C(CCN1CCCCC1)N1CCc2c([nH]c3ccccc23)[C@H]1c1cccnc1", "activity, negative = inhibition": "-11.2% [at 11.4 µM] (inactive)"}
{"MOLECULE": "COc1ccc(-n2cnc3sc(-c4ccccc4)cc3c2=O)cc1", "activity, negative = inhibition": "13% [at 2.29 µM] (inactive)"}
{"MOLECULE": "COc1ccc(Nc2ncc(C(=O)N3CCN(Cc4ccccc4)CC3)c3ccccc23)cc1", "activity, negative = inhibition": "-29.5% [at 2.29 µM] (inactive)"}
{"MOLECULE": "Cc1sc(NC(=O)c2ccco2)c(C(c2cccnc2)N2CCN(C)CC2)c1C (stereo not drawn)", "activity, negative = inhibition": "-28.9% [at 2.29 µM] (inactive)"}
{"MOLECULE": "CO[C@@H]1COC(=O)CC=C[C@@H](C)[C@@H]2C=C[C@H](O)[C@@H](COC(=O)[C@H](C)NC(=O)CC=C[C@H]1C)O2", "activity, negative = inhibition": "-23.2% [at 11.4 µM] (inactive)"}
{"MOLECULE": "Cc1sc2ccccc2[n+]1CCC(=O)O", "activity, negative = inhibition": "-6.82% [at 11.4 µM] (inactive)"}
{"MOLECULE": "Cc1ccc([C@@]2(C)CC/C(=N/N=C3\\CC[C@](C)(c4ccc(C)c(C)c4)c4cc(C)c(C)cc43)c3cc(C)c(C)cc32)cc1C", "activity, negative = inhibition": "-0.566% [at 11.4 µM] (inactive)"}
{"MOLECULE": "CC[C@@H]1CC(=O)N(SC[C@H](N)C(=O)O)C1=O", "activity, negative = inhibition": "-4.06% [at 11.4 µM] (inactive)"}
{"MOLECULE": "NCCNc1ncnc2ccc(Cl)cc12", "activity, negative = inhibition": "-27.5% [at 11.4 µM] (inactive)"}
{"MOLECULE": "S=c1nc[nH]c2c1ncn2Cc1ccco1", "activity, negative = inhibition": "-14.9% [at 11.4 µM] (inactive)"}
{"MOLECULE": "C=CC[C@@H]1C=C[C@H](O/N=C(\\C)CCN2CCc3nc(CC)c(CC)cc3C2)[C@H](CO)O1", "activity, negative = inhibition": "-75.9% [at 11.4 µM] (inactive)"}
{"MOLECULE": "O=C(O)[C@H](/C=C\\c1ccccc1)c1ccccc1", "activity, negative = inhibition": "-11.9% [at 11.4 µM] (inactive)"}
{"MOLECULE": "CCCCOC(=O)CSCC(=O)Nc1cc(C)on1", "activity, negative = inhibition": "-0.1% [at 11.4 µM] (inactive)"}
{"MOLECULE": "CCN(CC)c1cc(C)c2cc(NC(=O)CNC(C)=O)ccc2n1", "activity, negative = inhibition": "-3.72% [at 11.4 µM] (inactive)"}
{"MOLECULE": "COCCCNCC(=O)c1c(N)n(Cc2ccccc2)c(=O)n(C)c1=O", "activity, negative = inhibition": "-9.63% [at 2.29 µM] (inactive)"}
{"MOLECULE": "Cc1cc(O)c(C(C)C)cc1CN1CCCCC1", "activity, negative = inhibition": "-7.75% [at 11.4 µM] (inactive)"}
{"MOLECULE": "CO[C@@H](NC(N)=O)C(=O)O", "activity, negative = inhibition": "-10.7% [at 11.4 µM] (inactive)"}
{"MOLECULE": "c1ccc2c(c1)nnn2CN1CCOCC1", "activity, negative = inhibition": "-7.23% [at 11.4 µM] (inactive)"}
{"MOLECULE": "CCOC(=O)C1=C(C)NC2=C(C(=O)C(C(=O)OCC)C(c3ccc(OC)cc3)C2)C1c1ccccn1 (stereo not drawn)", "activity, negative = inhibition": "-13.7% [at 2.29 µM] (inactive)"}
{"MOLECULE": "C/C(CC(=O)Nc1ccccn1)=N\\NC(=O)C(=O)Nc1cccc(Cl)c1C", "activity, negative = inhibition": "16.1% [at 2.29 µM] (inactive)"}
{"MOLECULE": "C[C@]12CC[C@H]3c4ccc(O)cc4CC[C@@H]3[C@H]1C/C(=N/O)[C@H]2O", "activity, negative = inhibition": "-4.59% [at 11.4 µM] (inactive)"}
{"MOLECULE": "CCOC(=O)Cc1csc(NC(=O)c2c(-c3c(Cl)cccc3Cl)noc2C)n1", "activity, negative = inhibition": "-21.4% [at 2.29 µM] (inactive)"}
{"MOLECULE": "CC(C)=CCC1=C(OCC(=O)O)C(=O)c2ccccc2C1=O", "activity, negative = inhibition": "-24.9% [at 11.4 µM] (inactive)"}
{"MOLECULE": "CCC1CC2CC(NC(C)=O)C1C2 (stereo not drawn)", "activity, negative = inhibition": "0.468% [at 2.29 µM] (inactive)"}
{"MOLECULE": "COc1ccc(O[C@H]2C=C[C@@H](c3ccccc3)O[C@@H]2CO/N=C(\\C)CCN2CCc3nc(-c4ccccc4)c(-c4ccccc4)cc3C2)cc1", "activity, negative = inhibition": "-57.3% [at 11.4 µM] (inactive)"}
{"MOLECULE": "OCCCN=C1CCCCC1", "activity, negative = inhibition": "-15.7% [at 11.4 µM] (inactive)"}
{"MOLECULE": "N[C@@H](Cc1c[nH]c2ccc([N+](=O)[O-])cc12)C(=O)O", "activity, negative = inhibition": "-8.71% [at 11.4 µM] (inactive)"}
{"MOLECULE": "O=C(O)CC12C[C@H]3C[C@@H](CC(O)(C3)C1)C2", "activity, negative = inhibition": "-10.4% [at 11.4 µM] (inactive)"}
{"MOLECULE": "Cc1c(NC(=O)C(Sc2ccccc2)c2ccccc2)cccc1[N+](=O)[O-] (stereo not drawn)", "activity, negative = inhibition": "-28.3% [at 2.29 µM] (inactive)"}
{"MOLECULE": "CS(=O)(=O)c1ccccc1-c1nc(-c2cc(C(F)(F)F)cc(C(F)(F)F)c2)no1", "activity, negative = inhibition": "4.25% [at 2.29 µM] (inactive)"}
{"MOLECULE": "CCS(=O)(=O)N1CCC(C(=O)NCc2ccccc2OC)CC1", "activity, negative = inhibition": "4.92% [at 11.4 µM] (inactive)"}
{"MOLECULE": "O=C1CCCC=C1[C@@H](O)CCOC(c1ccccc1)(c1ccccc1)c1ccccc1", "activity, negative = inhibition": "-80.3% [at 11.4 µM] (inactive)"}
{"MOLECULE": "COCc1cc(=O)[nH]c2cc(NC(=O)C(F)(F)F)c(C)cc12", "activity, negative = inhibition": "-1.96% [at 11.4 µM] (inactive)"}
{"MOLECULE": "CC1=NNC(=S)NCCCN2CCN(CCCNC(=S)NN=C(C)C=NNC(=S)NCCCN3CCN(CCCNC(=S)NN=C1)CC3)CC2", "activity, negative = inhibition": "-1.88% [at 11.4 µM] (inactive)"}
{"MOLECULE": "OCCSCc1cc(Cl)cc(Cl)c1O", "activity, negative = inhibition": "-27.9% [at 11.4 µM] (inactive)"}
{"MOLECULE": "CN(C)CCCn1c2c3ccccc3ccc2c2oc(=O)c3ccccc3c21", "activity, negative = inhibition": "3.83% [at 11.4 µM] (inactive)"}
{"MOLECULE": "COc1cccc(/C=N/NC(=O)c2cc(-c3cccn3C)n[nH]2)c1", "activity, negative = inhibition": "-9.54% [at 2.29 µM] (inactive)"}
{"MOLECULE": "CS(=O)c1ccccc1-c1nc(-c2cc(C(F)(F)F)cc(C(F)(F)F)c2)no1 (stereo not drawn)", "activity, negative = inhibition": "15.3% [at 2.29 µM] (inactive)"}
{"MOLECULE": "O=C(CON1C(=O)c2ccccc2C1=O)c1ccccc1", "activity, negative = inhibition": "-17.5% [at 11.4 µM] (inactive)"}
